Reference source: ChEMBL document CHEMBL1133967

- Tested on: Aspergillus oryzae
- ASSAY_PROTOCOL: Inhibitory activity against Beta-D-galactosidase of Aspergillus oryzae at 1 mM; No inhibition
The source made the active and inactive calls. The calls are words filed in the database; no cut-off is given here.
QUANTITY_NAME: inhibition

Cc1oc(C2NCC(O)C2O)cc1CO (centres undefined): inactive
Cc1oc(C2NCC(O)C2O)cc1C(=O)Nc1ccccc1 (centres undefined): inactive
Cc1oc(C2NCC(O)C2O)cc1C(=O)O (centres undefined): inactive

----------
- Test system: Canavalia ensiformis
- ASSAY_PROTOCOL: Percent inhibition against Alpha-mannosidase of Jack bean at 1 mM
QUANTITY_NAME: inhibition (%)
I only need the number, in %, no unit after it.

Take a look at these entries with their results.
CCOC(=O)c1cc(C2NCC(O)C2O)oc1C (stereo not given): 38
COC(=O)c1cc(C2NCC(O)C2O)oc1C (stereo not given): 23

Entry CCN(CC)C(=O)c1cc(C2NCC(O)C2O)oc1C (stereo not given) under Canavalia ensiformis had inhibition of 27

Entry CCNC(=O)c1cc(C2NCC(O)C2O)oc1C (stereo not given) under Canavalia ensiformis had inhibition of 29

Entry Cc1oc(C2NCC(O)C2O)cc1C(=O)OC(C)C (stereo not given) under Canavalia ensiformis had inhibition of 78
